- Tested on: rat thoracic aorta rings
- Assay type: cell-based
readoutName: pEC50
Note on pEC50: it is the negative log10 of concentration, concentration in mol/L.

CC(C)[C@H](NC(=O)[C@@H]1CSSC[C@H](NC(=O)[C@H](C)N)C(=O)N[C@@H](Cc2ccccc2)C(=O)N[C@@H](Cc2cccc3ccccc23)C(=O)N[C@@H](CCCCN)C(=O)N[C@@H](Cc2ccc(O)cc2)C(=O)N1)C(=O)O [Compound 3, H-Ala-Cys-Phe-Nal-Lys-Tyr-Cys-Val-OH] = 7.27

[in] Report pEC50 on rat thoracic aorta rings for this entry: CC(C)[C@H](NC(=O)[C@@H]1CSSC[C@H](NC(=O)[C@H](C)N)C(=O)N[C@@H](Cc2ccccc2)C(=O)N[C@H]2Cc3c([nH]c4ccccc34)CN(C2=O)[C@@H](CCCCN)C(=O)N[C@@H](Cc2ccc(O)cc2)C(=O)N1)C(=O)O [Compound 12, H-Ala-Cys-Phe-Aia-Lys-Tyr-Cys-Val-OH]
[out] 6.74

====

- target: human urotensin II receptor (UT) (Homo sapiens, UniProt Q9UKP6)
- Construct: expressed in transfected cells; host or cells: CHO cells (CHO-UT), stably transfected, G418 selection
- Sequence (Q9UKP6 whole entry): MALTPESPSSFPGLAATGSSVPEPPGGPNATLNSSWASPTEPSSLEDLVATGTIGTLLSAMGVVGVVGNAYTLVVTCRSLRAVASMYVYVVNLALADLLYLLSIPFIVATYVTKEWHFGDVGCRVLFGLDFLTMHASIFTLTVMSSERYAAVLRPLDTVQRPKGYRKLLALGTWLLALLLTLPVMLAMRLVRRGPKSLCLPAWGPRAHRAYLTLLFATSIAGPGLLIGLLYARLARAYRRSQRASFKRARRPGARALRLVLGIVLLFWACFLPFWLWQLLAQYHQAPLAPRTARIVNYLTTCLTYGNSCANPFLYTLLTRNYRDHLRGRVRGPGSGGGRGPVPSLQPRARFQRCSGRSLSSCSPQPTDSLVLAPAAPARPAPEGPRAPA
- assayExplanation: Competitive radioligand binding on CHO-UT cells
readoutName: Binding affinity for UT (in words)

CC(C)[C@H](NC(=O)[C@@H]1CSSC[C@H](NC(=O)[C@H](C)N)C(=O)N[C@@H](Cc2ccccc2)C(=O)N2CCc3ccccc3[C@H]2C(=O)N[C@@H](CCCCN)C(=O)N[C@@H](Cc2ccc(O)cc2)C(=O)N1)C(=O)O = high binding affinity
CC(C)[C@H](NC(=O)[C@@H]1CSSC[C@H](NC(=O)[C@H](C)N)C(=O)N[C@@H](Cc2ccccc2)C(=O)N[C@H](c2ccccc2)C(=O)N[C@@H](CCCCN)C(=O)N[C@@H](Cc2ccc(O)cc2)C(=O)N1)C(=O)O [Compound 15, [D-Phg^4]URP] = high binding affinity
